Entries and their Percent Effect
# experimental-target: Chromo domain-containing protein 1 (Saccharomyces cerevisiae (strain ATCC 204508 / S288c) (Baker's yeast))
# method: ScCHD-1 Enzyme Inhibition Assay
# Type: functional
# Parameters: scale not given: in the data most compounds retested in dose-response had high values
# settings: 30 µM
Numeric answer only, unit % assumed.

# count of solved cases: 5
CCCn1c(C)c(CC(=O)N(C)CCOC)c2c1CC(C)(C)CC2=O; -8.76
CC(=O)Nc1ccc(CNC2CC(=O)N(Cc3cccc(F)c3)C2)cc1 (configuration not stated); -0.408
CCc1nc(CN2CCN(c3ncnc4cc(F)ccc34)CC2)no1; 1.03
O=C(c1cccc(=O)[nH]1)N(Cc1ccsc1)CC1CCCO1 (configuration not stated); -1.82
Cc1csc(N2CCN(C(=O)Cc3ccsc3)CC2)n1; -10.7

# input compound: `COCC(=O)N1CCO[C@H]2[C@H](OC)CC[C@@H]21` ; wanted: its Percent Effect
1.01

Likewise for `COCCN1C[C@H]2CC[C@@]3(N=C(C)N(CC4CC4)C3=O)[C@H]2C1` ?
1.06

Likewise for `CC(C)NC(=O)COc1nc(C(C)C)no1` ?
-4.43

Likewise for `COc1cccn(CC(=O)N(C)Cc2ccoc2)c1=O` ?
1.52

Likewise for CC1CCN(S(=O)(=O)NCC2CCOc3ccccc3C2)CC1 (configuration not stated) ?
-0.0656

Likewise for Cc1cnn(CC2CCCCN2C(=O)c2ccc3nnc(C)n3c2)c1 (configuration not stated) ?
-5.8

Likewise for CC(C)C(C(=O)N1CCN(Cc2ccncc2)CC1)n1cncn1 (configuration not stated) ?
2.61

Origin of the recorded values: ChEMBL document CHEMBL3988442
